- tested.on: HIV-1 envelope glycoprotein (gp120) of virus 7141 (HIV-1)
- test: cell-based or functional assay
quantity.measured: Neutralization IC50 (mg/L)
Field: numeric (mg/L). Do not append units.

Here is how some binders turned out for Neutralization IC50.
binder	test.result
2.2.9-1 (antibody, human IgG1, kappa, V domains shown) VH: QVHLSQSGAAVTKPGASVRVSCEASGYKIRDHFIHWWRQAPGQGLQWVGWINPKTGQPNNPRQFQGRVSLTRHASWDFDTFSFYMDLKAVRSDDTAIYFCARQRSDYWDFDVWGSGTQVTVSS VL: DIQMTQSPSSLSARVGDTATITCQANGYLNWYQQRRGKAPKLLIYDGSKLERGVPARFSGRRWGQEYNLTINNLQPEDVATYFCQVYEFFGPGTRLDLKR	1.75
2.2.18-1 (antibody, human IgG1, kappa, V domains shown) VH: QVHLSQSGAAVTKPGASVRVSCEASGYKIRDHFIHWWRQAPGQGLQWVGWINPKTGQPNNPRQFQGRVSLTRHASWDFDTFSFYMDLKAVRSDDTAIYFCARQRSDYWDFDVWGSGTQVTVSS VL: DIQMTQSPSSLSARVGDRATITCQANGYLNWYQQRRGKAPKLLIYDGSKLERGVPARFSGSRWGQEYHLTISSLQPEDVATYFCQVYEFFGPGTRLDLKR	5.04
2.3.12-1 (antibody, human IgG1, kappa, V domains shown) VH: QVHLSQSGAAVTKPGASVRVSCEASGYNIRDYFIHWWRQAPGQGLQWVGWINPKTGQPNNPRQFQGRVSLTRHASWDFDTFSFYMDLKAVRSDDTAIYFCARQRSDYWDFDVWGSGTQVTVSS VL: DIQMTQSPSSLSARVGDTATITCQANGYLNWYQQRRGKAPKLLIYDGSKLERGVPARFSGRRWGQEYILTINNLQPEDVATYFCQVYEFFGPGTRLDLKR	23.8
2.3.13-1 (antibody, human IgG1, kappa, V domains shown) VH: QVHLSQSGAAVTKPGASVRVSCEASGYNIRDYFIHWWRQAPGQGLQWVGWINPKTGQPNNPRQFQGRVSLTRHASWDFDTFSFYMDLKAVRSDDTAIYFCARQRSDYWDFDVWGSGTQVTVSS VL: DIQMTQSPSSLSARVGDRATITCQANGYLNWYQQRRGKAPKLLIYDGSKLERGVPARFSGSRWGQEYILTISSLQPEDVATYFCQVYEFFGPGTRLDLKR	15.5

Proceed to the following item.
Request: May I ask what Neutralization IC50 has been recorded for 1.1.119-1 (antibody, human IgG1, kappa, V domains shown) VH: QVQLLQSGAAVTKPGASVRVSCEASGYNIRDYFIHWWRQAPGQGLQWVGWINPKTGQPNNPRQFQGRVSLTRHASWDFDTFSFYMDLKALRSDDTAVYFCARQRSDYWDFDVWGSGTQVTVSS VL: DIQMTQSPSSLSASVGDRATITCQANGYLNWYQQRRGKAPKLLIYDGSKLERGVPSRFSGSRWGQEYTLTISSLQPEDIATYFCQVYEFFGPGTRLDLKR ?
Response: 6.92

Cited source: patent US20220089698A1
